ASSAYED SYSTEM: EGFR (T790M/L858R) (Homo sapiens, UniProt P00533, L858R/T790M)
Sequence (P00533 25-1210 T790M/L858R): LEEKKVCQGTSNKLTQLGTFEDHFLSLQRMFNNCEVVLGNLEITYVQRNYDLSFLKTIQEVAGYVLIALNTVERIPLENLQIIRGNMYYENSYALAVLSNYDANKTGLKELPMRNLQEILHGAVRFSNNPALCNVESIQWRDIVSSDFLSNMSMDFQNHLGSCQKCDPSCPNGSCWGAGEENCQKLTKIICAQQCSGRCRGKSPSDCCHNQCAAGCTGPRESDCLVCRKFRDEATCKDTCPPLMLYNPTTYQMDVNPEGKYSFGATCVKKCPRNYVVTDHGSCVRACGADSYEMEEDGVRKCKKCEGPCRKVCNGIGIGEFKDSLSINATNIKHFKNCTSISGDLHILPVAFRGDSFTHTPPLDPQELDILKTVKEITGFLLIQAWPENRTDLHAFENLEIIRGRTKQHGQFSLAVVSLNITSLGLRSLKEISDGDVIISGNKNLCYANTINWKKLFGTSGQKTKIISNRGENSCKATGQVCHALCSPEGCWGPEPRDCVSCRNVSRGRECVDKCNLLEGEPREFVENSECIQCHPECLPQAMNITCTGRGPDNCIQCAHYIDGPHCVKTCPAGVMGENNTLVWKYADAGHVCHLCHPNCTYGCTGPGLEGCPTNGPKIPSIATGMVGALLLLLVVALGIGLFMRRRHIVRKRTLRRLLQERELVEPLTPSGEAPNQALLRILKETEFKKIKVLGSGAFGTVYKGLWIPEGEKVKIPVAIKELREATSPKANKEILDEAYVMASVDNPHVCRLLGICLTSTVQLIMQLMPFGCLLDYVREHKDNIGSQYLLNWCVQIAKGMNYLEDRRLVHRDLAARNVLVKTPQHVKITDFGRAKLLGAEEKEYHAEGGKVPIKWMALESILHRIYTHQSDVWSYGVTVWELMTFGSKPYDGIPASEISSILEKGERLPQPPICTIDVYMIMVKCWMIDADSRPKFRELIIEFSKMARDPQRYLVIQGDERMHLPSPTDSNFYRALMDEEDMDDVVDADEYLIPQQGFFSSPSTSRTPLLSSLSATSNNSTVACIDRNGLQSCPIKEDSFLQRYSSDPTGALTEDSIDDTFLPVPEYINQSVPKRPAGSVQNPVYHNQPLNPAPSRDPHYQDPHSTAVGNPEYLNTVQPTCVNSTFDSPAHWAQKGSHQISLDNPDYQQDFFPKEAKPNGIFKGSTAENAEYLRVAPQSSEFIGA
PROCEDURE DETAILS: Omnia continuous-read kinase assay, EGFR (T790M/L858R)
TEST PARAMETERS: read-out: EGFR (T790M/L858R) inhibiton
Source text: The protocol below describes continuous-read kinase assays to measure inherent potency of compounds against active forms of EGFR (WT) and EGFR (T790M/L858R) enzymes. […]
OBSERVED PROPERTY: IC50

// known answers, use as guide
O=C(CCl)Nc1cccc(Nc2cc(Nc3ccc(F)c(Cl)c3)ncn2)c1 ... ≤ 10 nM
Cc1ccc(NC(=O)/C=C/CN(C)C)cc1Nc1cc(Nc2ccc(F)c(Cl)c2)ncn1 ... ≤ 10 nM
C=CS(=O)(=O)Nc1cccc(Nc2cc(Nc3ccc(OCc4cccc(F)c4)c(Cl)c3)ncn2)c1 ... 10 to 100 nM
C=CC(=O)Nc1cccc(Nc2cc(Nc3ccc(OCc4cccc(F)c4)c(Cl)c3)ncn2)c1 ... 10 to 100 nM
Cc1cccc(Nc2cc(Nc3cccc(NC(=O)/C=C/CN4CCNCC4)c3)ncn2)c1 ... 100 to 1000 nM

Fill blank: measured IC50 of the compound "[2H]C([2H])([2H])N(C/C=C/C(=O)Nc1cccc(Nc2cc(Nc3ccc(F)c(Cl)c3)ncn2)c1)C([2H])([2H])[2H]" is ____.
≤ 10 nM

Fill blank: measured IC50 of the compound "C=CC(=O)Nc1cccc(Nc2cc(Oc3ccc(Oc4ccccc4)cc3)ncn2)n1" is ____.
100 to 1000 nM

Fill blank: measured IC50 of the compound "Cc1cccc(Nc2cc(Nc3cccc(NC(=O)/C=C/CN(C)C)c3)ncn2)c1" is ____.
10 to 100 nM

The reported measurements were obtained from patent US9296704B2.
